// data source = patent US8148391B2

Field: IC50. Provide a value for each of the compounds that follow.
# TARGET UNDER TEST: baculovirus-expressed ALK (Homo sapiens)
# Construct: host or cells: baculovirus expression system
# Sequence (Q9UM73 19-1620): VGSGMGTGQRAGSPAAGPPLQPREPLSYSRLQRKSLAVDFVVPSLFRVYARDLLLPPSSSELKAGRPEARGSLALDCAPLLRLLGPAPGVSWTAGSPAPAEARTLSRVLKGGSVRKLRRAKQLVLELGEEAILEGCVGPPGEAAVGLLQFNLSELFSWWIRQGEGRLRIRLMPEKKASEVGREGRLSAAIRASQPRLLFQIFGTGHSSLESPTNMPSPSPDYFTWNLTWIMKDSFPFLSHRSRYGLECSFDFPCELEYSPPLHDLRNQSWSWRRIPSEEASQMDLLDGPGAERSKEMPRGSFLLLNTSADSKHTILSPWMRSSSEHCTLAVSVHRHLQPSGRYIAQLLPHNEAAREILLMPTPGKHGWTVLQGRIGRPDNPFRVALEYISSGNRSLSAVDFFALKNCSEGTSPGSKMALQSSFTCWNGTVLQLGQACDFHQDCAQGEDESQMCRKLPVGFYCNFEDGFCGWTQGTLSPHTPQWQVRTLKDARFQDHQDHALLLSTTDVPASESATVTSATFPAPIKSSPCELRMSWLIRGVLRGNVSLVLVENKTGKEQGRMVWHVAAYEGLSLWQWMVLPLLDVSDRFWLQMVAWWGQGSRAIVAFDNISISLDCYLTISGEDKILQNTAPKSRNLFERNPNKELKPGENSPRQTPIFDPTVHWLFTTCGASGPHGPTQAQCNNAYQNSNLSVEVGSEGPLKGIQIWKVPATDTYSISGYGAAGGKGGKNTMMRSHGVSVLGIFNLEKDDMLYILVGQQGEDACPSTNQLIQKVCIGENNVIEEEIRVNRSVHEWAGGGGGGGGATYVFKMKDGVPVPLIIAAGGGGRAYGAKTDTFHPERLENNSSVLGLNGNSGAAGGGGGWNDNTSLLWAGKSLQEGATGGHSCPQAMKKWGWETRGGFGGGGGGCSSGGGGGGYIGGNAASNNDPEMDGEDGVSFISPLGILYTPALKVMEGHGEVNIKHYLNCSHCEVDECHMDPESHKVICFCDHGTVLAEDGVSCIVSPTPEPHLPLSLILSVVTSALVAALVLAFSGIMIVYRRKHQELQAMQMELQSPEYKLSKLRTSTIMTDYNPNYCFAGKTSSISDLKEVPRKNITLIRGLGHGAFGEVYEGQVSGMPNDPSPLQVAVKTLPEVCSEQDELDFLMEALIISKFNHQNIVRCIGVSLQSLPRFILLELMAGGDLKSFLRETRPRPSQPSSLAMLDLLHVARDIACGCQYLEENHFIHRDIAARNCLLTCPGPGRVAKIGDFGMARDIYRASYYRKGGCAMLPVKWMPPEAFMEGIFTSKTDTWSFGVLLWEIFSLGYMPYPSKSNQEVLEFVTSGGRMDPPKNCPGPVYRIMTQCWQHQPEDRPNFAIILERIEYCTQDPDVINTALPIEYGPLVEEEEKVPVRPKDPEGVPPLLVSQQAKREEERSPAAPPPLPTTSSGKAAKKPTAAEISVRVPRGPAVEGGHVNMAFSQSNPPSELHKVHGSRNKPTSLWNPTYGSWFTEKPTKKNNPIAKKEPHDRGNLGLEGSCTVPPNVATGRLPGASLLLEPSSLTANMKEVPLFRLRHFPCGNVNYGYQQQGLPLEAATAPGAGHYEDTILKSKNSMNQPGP
# ASSAY PROCEDURE: ALK Kinase Assay (ELISA-type, time-resolved fluorescence)
# Assay type: biochemical
# ASSAY CONTEXT: 1 μM ATP (Km level); read-out: ALK Activity (ALK Kinase Inhibition, IC50)

[ask] # return recorded IC50 for input COc1cc2c(cc1Nc1ncc(Cl)c(Nc3ccccc3-c3ncccc3C)n1)CCN(CC(=O)N(C)C)CC2 [Example 1000]
[reply] < 0.1 µM

[ask] Read off the recorded IC50 for CC1(C)CCCOc2c(Nc3ncc(Cl)c(Nc4ccccc4C(=O)NCCC#N)n3)cccc21 [Example 877]
[reply] 0.1 to 1 µM

[ask] Annotate the compound CN1CCN(C2CCc3ccc(Nc4ncc(Cl)c(Nc5ccccc5S(=O)(=O)N(C)C)n4)cc3CC2)CC1 (stereo not shown) [Example 890] with its measured IC50.
[reply] < 0.1 µM

[ask] Determine its reported IC50: COc1cc2c(cc1Nc1ncc(Cl)c(Nc3ccc(C(F)(F)F)cc3S(=O)(=O)N(C)C)n1)CCN(CC(=O)N(C)C)CC2 [Example 843]
[reply] < 0.1 µM

[ask] Input C#CCNC(=O)c1cccc(F)c1Nc1nc(Nc2ccc3c(c2)CCN(C(=O)C2COCCO2)CC3)ncc1Cl (stereo not shown) [Example 640] , output reported IC50.
[reply] 0.1 to 1 µM

[ask] For the compound COc1cc2c(cc1Nc1ncc(Cl)c(Nc3ccc(N4CCN(C)CC4)cc3OC)n1)CCN(CC(C)(F)F)CC2 [Example 781] , give its reported IC50.
[reply] < 0.1 µM

[ask] Identify measured IC50 associated with COCCN1CCc2ccc(Nc3ncc(Cl)c(Nc4ccccc4-c4ncccc4C(F)(F)F)n3)cc2CC1 [Example 992]
[reply] < 0.1 µM

[ask] Supply recorded IC50 for Cn1ccnc1-c1ccccc1Nc1nc(Nc2cccc3c2OCCCC3(C)C)ncc1Cl [Example 879] here.
[reply] 0.1 to 1 µM

[ask] Report IC50 for CCN1C(=O)CCCc2c1ccc(Nc1ncc(Cl)c(N[C@H]3[C@@H](C(=O)NC)[C@@H]4C=C[C@H]3C4)n1)c2OC (relative stereo) [Example 601]
[reply] < 0.1 µM

[ask] Return IC50 for the following compound: CCNC(=O)c1cccc(F)c1Nc1nc(Nc2cccc3c2OCCCC3(C)C)ncc1Cl [Example 874]
[reply] 0.1 to 1 µM

[ask] Please look at this compound and report its IC50: COc1cc2c(cc1Nc1ncc(Cl)c(Nc3c(OC)ccc4c3CN(S(C)(=O)=O)CC(=O)N4)n1)CCN(CC(=O)N(C)C)CC2 [Example 751]
[reply] 1 to 10 µM

[ask] Provide only the value of recorded IC50 for COCCN1CCc2ccc(Nc3ncc(Cl)c(Nc4ccc(N(C)C)cc4S(=O)(=O)N(C)C)n3)cc2CC1 [Example 852]
[reply] < 0.1 µM

[ask] Provide one value: measured IC50 of CNC(=O)c1ccccc1Nc1nc(Nc2cccc3c2N(C)CCN(C)C3=O)ncc1Cl [Example 541]
[reply] 0.1 to 1 µM

[ask] Give recorded IC50. COc1c(Nc2ncc(Cl)c(N[C@H]3[C@@H](C(N)=O)[C@@H]4C=C[C@H]3C4)n2)ccc2c1CCC(NCCO)CC2 (single isomer, unassigned) [Example 696]
[reply] < 0.1 µM

[ask] Name the recorded IC50 of the compound listed here: COc1cc(N2CCN(C)CC2)ccc1Nc1nc(Nc2ccc3c(c2)CCCC(=O)N3C(C)C)ncc1Cl [Example 674]
[reply] < 0.1 µM

[ask] For COc1cc2c(cc1Nc1ncc(Cl)c(Nc3ccc(N4CCOCC4)cc3OC)n1)CCN(CC(N)=O)CC2 [Example 799] , write its IC50.
[reply] < 0.1 µM

[ask] Tell us which IC50 value is on record for CNC(=O)c1cccc(Nc2nc(Nc3ccc4c(c3)C(C)(C)CCC(=O)N4)ncc2Cl)c1 [Example 672]
[reply] 0.1 to 1 µM

[ask] Give reported IC50 value for CCNC(=O)c1ccccc1Nc1nc(Nc2cc3c(cc2OC)CCN(CC(F)F)CC3)ncc1Cl [Example 767]
[reply] < 0.1 µM

[ask] Name the recorded IC50 of the compound listed here: CC1(C)CCCOc2c(Nc3ncc(Cl)c(N[C@@H]4[C@H](C(N)=O)[C@H]5C=C[C@@H]4C5)n3)cccc21 [Example 870]
[reply] 0.1 to 1 µM

[ask] Supply reported IC50 belonging to this compound: Cc1ccc(-c2ccccc2Nc2nc(Nc3ccc4c(c3)C(C)(C)CCC(=O)N4)ncc2Cl)nc1 [Example 1003]
[reply] 1 to 10 µM

[ask] Give the reported IC50 for this compound. COc1cc2c(cc1Nc1ncc(Cl)c(Nc3ccc(N4CCN(C)CC4)cc3OC)n1)CCNC(=O)C2 [Example 778]
[reply] < 0.1 µM

[ask] Tell me IC50 reported for CC1(C)CCC(=O)Nc2ccc(Nc3ncc(Cl)c(Nc4ccccc4-c4ncccc4C(F)(F)F)n3)cc21 [Example 991]
[reply] 0.1 to 1 µM

[ask] Identify measured IC50 corresponding to COc1cc(N2CCOCC2)ccc1Nc1nc(Nc2ccc3c(c2OC)CCC(N2CCCC(O)C2)CC3)ncc1Cl (mixture of isomers) [Example 913]
[reply] < 0.1 µM

[ask] Return the recorded IC50 value; entry: COc1ccc(Nc2nc(Nc3cc4c(cc3OC)CCN(CC(=O)N(C)C)CC4)ncc2Cl)c(S(=O)(=O)N(C)C)c1 [Example 820]
[reply] < 0.1 µM

[ask] Give recorded IC50. COc1ccc2c(c1Nc1ncc(Cl)c(Nc3ccccc3-c3nccn3C)n1)NC(=O)CCC2(C)C [Example 998]
[reply] > 10 µM

[ask] Fill in IC50 for record COc1cc2c(cc1Nc1ncc(Cl)c(Nc3ccc(N4CCN(C)CC4)c(OC)c3)n1)CCN(CC(=O)N(C)C)CC2 [Example 804]
[reply] < 0.1 µM

[ask] Could you please provide reported IC50 for COc1cc2c(cc1Nc1ncc(Cl)c(Nc3ccc(N4CCN(C)CC4)cc3OC)n1)CCN(CC(=O)N(C)C)CC2 [Example 770] ? Thanks!
[reply] < 0.1 µM

[ask] Supply IC50 value. Item: CC1(C)CCC(=O)Nc2ccc(Nc3ncc(Cl)c(Nc4ccc(N5CCOCC5)cc4-n4cccn4)n3)cc21 [Example 627]
[reply] < 0.1 µM

----------
# TARGET UNDER TEST: baculovirus-expressed ALK (Homo sapiens)
# Construct: host or cells: baculovirus expression system
# ASSAY PROCEDURE: ALK Kinase Assay (ELISA-type, time-resolved fluorescence)
# Type: biochemical
# ASSAY CONTEXT: ALK kinase inhibition, 1 μM ATP; read-out: ALK Activity
Exercise: for every item that follows, state its recorded IC50.

[ask] Give the observed IC50 of `COC(=O)c1sc(-c2ccccc2)c(C)c1Nc1nc(Nc2ccc3c(c2)CCOC(=O)N3C)ncc1Cl` for baculovirus-expressed ALK (Homo sapiens).
[reply] > 10000 nM

[ask] State IC50 on baculovirus-expressed ALK (Homo sapiens). Entry: C#CCNC(=O)c1cccc(F)c1Nc1nc(Nc2ccc3c(c2)OCC(O)(CO)CN3CC)ncc1Cl (stereo not drawn)
[reply] 100 to 1000 nM

[ask] Write IC50 of `CCN1CCN(CC(=O)OCCOC)C(=O)c2ccc(Nc3ncc(Cl)c(Nc4c(F)cccc4C(=O)NC)n3)cc21` ; system used: baculovirus-expressed ALK (Homo sapiens)
[reply] 100 to 1000 nM

[ask] State IC50 (baculovirus-expressed ALK (Homo sapiens)) of `CN1C(=O)OCCc2cc(Nc3ncc(Cl)c(Nc4cccc5[nH]ncc45)n3)ccc21` .
[reply] 100 to 1000 nM

[ask] Jot down IC50 (baculovirus-expressed ALK (Homo sapiens)) of `CNC(=O)c1ccccc1Nc1nc(Nc2cc3c(cc2OC)CCOC(=O)N3C)ncc1Br` .
[reply] < 100 nM

[ask] Return reported IC50 for target or system baculovirus-expressed ALK (Homo sapiens), item `C#CCOc1cccc(F)c1Nc1nc(Nc2ccc3c(c2)CCOC(=O)N3C)ncc1Cl` .
[reply] 100 to 1000 nM

[ask] GET IC50 | system: baculovirus-expressed ALK (Homo sapiens) | item: `CCN1C(=O)CCC(C)(C)c2ccc(Nc3ncc(Cl)c(N[C@H]4[C@@H](C(N)=O)[C@@H]5C=C[C@H]4C5)n3)cc21`
[reply] < 100 nM

[ask] Enter recorded IC50 with baculovirus-expressed ALK (Homo sapiens) for `CN1C(=O)OCCc2cc(Nc3ncc(Cl)c(Nc4ccccc4-c4nccn4C)n3)ccc21` here.
[reply] < 100 nM

[ask] GET IC50 where system = baculovirus-expressed ALK (Homo sapiens) and item = `CNC(=O)c1cccc(F)c1Nc1nc(Nc2ccc3c(c2)N(C(=O)N2CCCC2)CCCC3(C)C)ncc1Cl`
[reply] 100 to 1000 nM

[ask] Identify measured IC50 obtained with baculovirus-expressed ALK (Homo sapiens) for `CNC(=O)c1cccc(F)c1Nc1nc(Nc2ccc3c(c2)N(C(C)C)CCCO3)ncc1Cl` .
[reply] < 100 nM

[ask] Provide baculovirus-expressed ALK (Homo sapiens) IC50 reading for `CNC(=O)c1scc(C)c1Nc1nc(Nc2ccc3c(c2)CCOC(=O)N3C)ncc1Cl` .
[reply] 1000 to 10000 nM

[ask] Look up baculovirus-expressed ALK (Homo sapiens) data: IC50 of `COc1cc2c(cc1Nc1ncc(Cl)c(Nc3ccccc3S(=O)(=O)N3CC[C@@H](O)C3)n1)CCN(CC(C)(C)O)CC2` , then report it.
[reply] < 100 nM

[ask] // output IC50; input `C#CCNC(=O)c1cccc(F)c1Nc1nc(Nc2ccc3c(c2)N(C(C)=O)CCCC3(C)C)ncc1Cl` ; system baculovirus-expressed ALK (Homo sapiens)
[reply] 100 to 1000 nM

[ask] Find the measured IC50 of `COc1cc2c(cc1Nc1ncc(Cl)c(Nc3ccccc3S(=O)(=O)C(C)C)n1)CCN(CC(=O)N1CCN(C)CC1)CC2` with baculovirus-expressed ALK (Homo sapiens) as test system.
[reply] < 100 nM

[ask] Send back baculovirus-expressed ALK (Homo sapiens) IC50 of `CNC(=O)c1ccccc1Nc1nc(Nc2ccc3c(c2)C(C)(C)NC(=O)CC3)ncc1Cl` only.
[reply] < 100 nM
